Test system: Staphylococcus aureus
Experiment: Antibacterial activity against methicillin-resistant Staphylococcus aureus by CLSI M7-A7 broth microdilution method
Type: functional
Parameter Measured: log10 MIC50 (log10 of the value in µg/mL)
Please keep in mind that the values are log10 of MIC50 expressed in µg/mL.

Recorded results for 3 compounds are shown here.
Compound	log10 MIC50
CN[C@H](CC(C)C)C(=O)N[C@H]1C(=O)N[C@@H](CC(N)=O)C(=O)N[C@H]2C(=O)N[C@H]3C(=O)N[C@H](C(=O)N[C@H](C(=O)O)c4cc(O)cc(O)c4-c4cc3ccc4O)[C@H](O)c3ccc(c(Cl)c3)Oc3cc2cc(c3O[C@@H]2O[C@H](CO)[C@@H](O)[C@H](O)[C@H]2O[C@H]2C[C@](C)(N)[C@H](O)[C@H](C)O2)Oc2ccc(cc2Cl)[C@H]1O [VANCOMYCIN]	0.00
CCO/N=C(\C(=O)N[C@@H]1C(=O)N2C(C(=O)[O-])=C(Sc3nc(-c4cc[n+](C)cc4)cs3)CS[C@H]12)c1nsc(NP(=O)(O)O)n1 [CEFTAROLINE FOSAMIL]	-0.30
C[C@H]1COc2c(N3CCN(C)CC3)c(F)cc3c(=O)c(C(=O)O)cn1c23.C[C@H]1COc2c(N3CCN(C)CC3)c(F)cc3c(=O)c(C(=O)O)cn1c23.O [LEVOFLOXACIN]	0.90

Problem: Give recorded log10 MIC50 with Staphylococcus aureus for the following compound: CO/N=C(\C(=O)N[C@@H]1C(=O)N2C(C(=O)O)=C(CSc3nc(=O)c(O)nn3C)CS[C@H]12)c1csc(N)n1 [CEFTRIAXONE]
Solution: 1.20

Problem: Item CC(=O)NC[C@H]1CN(c2ccc(N3CCOCC3)c(F)c2)C(=O)O1 [LINEZOLID] with Staphylococcus aureus - log10 MIC50?
Solution: 0.30

Problem: So what log10 MIC50 did CC(C)(O/N=C(\C(=O)N[C@@H]1C(=O)N2C(C(=O)[O-])=C(C[n+]3ccccc3)CS[C@H]12)c1csc(N)n1)C(=O)O [CEFTAZIDIME] get with Staphylococcus aureus?
Solution: 1.51
